Origin of values: paper PMC6100724

- study_system: T1, Scribble PDZ1 (human, aa 719-829) (human, UniProt Q14160 719-829)
- T1 construct: Scribble, human, PDZ1, aa 719-829 in pETM-11; The His tag was cleaved only for the NMR samples; nothing is said of cleavage for MST and ITC; also called Scribble PDZ1 wild type; source: E. coli BL21 Gold (DE3), purified (Ni2+ Sepharose)
- T1 sequence (Q14160 719-829): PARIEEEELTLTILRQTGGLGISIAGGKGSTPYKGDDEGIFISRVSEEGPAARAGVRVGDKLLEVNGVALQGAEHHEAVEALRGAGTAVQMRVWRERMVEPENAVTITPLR
- assay_notes: MST; FITC-labelled peptide fixed at 25-50 nM, PDZ domain titrated (1:1 dilution series); 50 mM Tris-HCl pH 7.4, 0.1% Tween-20; thermophoresis and T-Jump signal; triplicate
- assay_conditions: both partners purified
Square brackets hold non-standard residues; d marks the D form. Ends that are not written are not given here. * marks the point of attachment. FITC = O=C1OC2(c3ccc(O)cc3Oc3cc(O)ccc32)c2ccc(NC(=S)*)cc21; pS = N[C@@H](COP(=O)(O)O)C(=O)O
Please go through the items and note down their pKd.
One number for each entry, as −log10 of the molar value.

{"columns": ["binder", "pKd"],
 "data": [
  ["{FITC}-RLT[pS]TRL (C-terminal seven residues of RPS6KA2, human; the methods give pS at this position; also called pRPS6KA2; source: synthetic peptide, bought: GeneCust) [FITC-RLTpSTRL (RPS6KA2 peptide, p-3 phosphorylated)]", 5.77],
  ["{FITC}-RLTETRL (C-terminal seven residues of RPS6KA2, human, with S730E; also called Mimetic RPS6KA2; source: synthetic peptide, bought: GeneCust) [FITC-RLTETRL (RPS6KA2 peptide, phosphomimetic at p-3)]", 6.15]
]}

Give pKd for all binders that follow.
1. {FITC}-HTNETEL (also called Mimetic MCC; source: synthetic peptide, bought: GeneCust) [FITC-HTNETEL (MCC peptide, phosphomimetic at p-1)]
2. {FITC}-KRSFIESNV (C-terminal nine residues of TANC1, human; source: synthetic peptide, bought: GeneCust) [FITC-KRSFIESNV (TANC1 peptide, unphosphorylated)]
3. {FITC}-RLTSTRL (C-terminal seven residues of RPS6KA2, human; source: synthetic peptide, bought: GeneCust) [FITC-RLTSTRL (RPS6KA2 peptide, unphosphorylated)]
4. {FITC}-KR[pS]FIESNV (C-terminal nine residues of TANC1, human; also called pTANC1; source: synthetic peptide, bought: GeneCust) [FITC-KRpSFIESNV (TANC1 peptide, p-6 phosphorylated)]
5. {FITC}-HTNET[pS]L (C-terminal seven residues of MCC, human; also called pMCC; source: synthetic peptide, bought: GeneCust) [FITC-HTNETpSL (MCC peptide, p-1 phosphorylated)]

Key:
5.96
4.38
5.05
4.00
6.22

Give pKd for all binders that follow.
1. {FITC}-KREFIESNV (also called Mimetic TANC1; source: synthetic peptide, bought: GeneCust) [FITC-KREFIESNV (TANC1 peptide, phosphomimetic at p-6)]
2. {FITC}-HTNETSL (C-terminal seven residues of MCC, human; source: synthetic peptide, bought: GeneCust) [FITC-HTNETSL (MCC peptide, unphosphorylated)]

Key:
4.28
5.74
